- method: Pharmacokinetics after intraperitoneal administration in female SCID mice (plasma, LC-MS/MS, non compartmental analysis)
- Type: in vivo
- conditionContext: 20 mg/kg IP, plasma, relative to AUC0-inf
readoutLabel: Percentage of extrapolated AUC from T6 h to infinity (%)

>  <compound>
O=C(/C=C/c1cccnc1)NCCCCC1CCN(C(=O)c2ccccc2)CC1 [FK866, reference compound]

>  <displayUnit>
%

>  <valueMeasured>
1.2

$$$$

(I) O=C(/C=C/c1cccnc1F)NCCCCC1CCN(C(=O)c2ccccc2)CC1
(II) N#C/N=C(\NC/C=C/CCC1CCN(C(=O)c2ccco2)CC1)Nc1ccncc1
(III) O=C(/C=C/c1cccnc1F)NCCCCC1CCN(C(=O)c2cccs2)CC1
Task item: Ordering criterion: Percentage of extrapolated AUC from T6 h to infinity; begin with the maximum. In your reply, arrange the labels in the requested order.
Reply: III, I, II
